- testSystem: HIV-1 IN (Human immunodeficiency virus type 1 group M subtype B, UniProt P12497)
- Construct: pre-incubated with purified recombinant IN (at a final concentration of 200 nM); made in house
- measurementDescription: In vitro IN inhibition assay (3’-processing and strand transfer)
- Format: biochemical
- measurementParameters: Mn2+ cofactor (7.5 mM MnCl2); read-out: Inhibition of IN catalytic activity IC50, 3’-Processing
Listing of recorded pIC50 by entry.
Note: pIC50 values are expressed as the negative base-10 logarithm of concentration in M.

# example entries with known answers
inputSmiles	dataValue
O=C(Nc1ccc(O)cc1)C(=S)NN1C(=O)C(=Cc2cc(Cl)cc(Cl)c2O)SC1=S	4.22
COc1cc(NC(=O)C(=S)NN2C(=O)C(=Cc3cc(Cl)ccc3O)SC2=S)cc(OC)c1OC	4.08

Next up:
Ask | Name the recorded pIC50 for `O=C(Nc1ccc(O)cc1)C(=S)NN1C(=O)C(=Cc2cc(N=Nc3ccccc3)ccc2O)SC1=S` .
Reply | 4.77

Data origin: paper PMC6264390
